# system_name: UniProt P97612
# Sequence (P97612 1-579): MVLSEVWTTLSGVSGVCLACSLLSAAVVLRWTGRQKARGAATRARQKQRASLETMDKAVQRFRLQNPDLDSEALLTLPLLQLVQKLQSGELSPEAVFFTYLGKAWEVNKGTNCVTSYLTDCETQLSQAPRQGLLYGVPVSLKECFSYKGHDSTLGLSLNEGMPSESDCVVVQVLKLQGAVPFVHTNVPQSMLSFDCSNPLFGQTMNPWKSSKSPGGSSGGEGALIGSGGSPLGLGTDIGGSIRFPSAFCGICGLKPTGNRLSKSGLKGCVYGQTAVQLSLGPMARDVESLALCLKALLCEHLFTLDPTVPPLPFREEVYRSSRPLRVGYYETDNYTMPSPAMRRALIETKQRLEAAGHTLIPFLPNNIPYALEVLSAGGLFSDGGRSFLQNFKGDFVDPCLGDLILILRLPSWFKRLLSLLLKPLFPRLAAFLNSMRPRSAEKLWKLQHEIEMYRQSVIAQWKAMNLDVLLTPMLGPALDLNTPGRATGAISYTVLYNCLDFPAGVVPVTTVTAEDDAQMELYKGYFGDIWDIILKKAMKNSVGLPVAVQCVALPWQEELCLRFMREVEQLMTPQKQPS
# assay_text: Assay Method 2: rat FAAH-1 assay, 3H-anandamide hydrolysis in homogenate of SK-N-MC cells transfected with rat FAAH
pIC50: −log10 of the molar value. Where a name gives a salt, the structure may show the parent alone.
endpoint: pIC50

Past entries and their recorded results:
compound	pIC50
CCCCOc1ccc(-c2cc(NC[C@H](O)c3ccccc3)ncn2)cc1F [Example 33, trifluoroacetic acid salt]	5.70
O[C@@H](CNc1cc(-c2ccc3c(c2)OC(F)(F)O3)ncn1)c1ccccc1	7.05
OC(CNc1cc(-c2ccc(C(F)(F)F)c(Cl)c2)ncn1)c1ccc(F)cc1 (stereo not shown)	7.92
OC(CNc1cc(-c2ccc(C(F)(F)F)c(Cl)c2)ncn1)c1ccc(-c2ccccc2)cc1 (stereo not shown)	6.40
OC(CNc1cc(-c2ccc3c(c2)OCO3)ncn1)c1ccccc1 (stereo not shown)	6.00
O[C@@H](CNc1cc(-c2csc3ccccc23)ncn1)c1ccccc1 [Example 87, trifluoroacetic acid salt]	5.85

(A) Cc1cc(-c2cc(NC[C@H](O)c3ccccc3)ncn2)ccc1Cl [Example 26, trifluoroacetic acid salt]
(B) O[C@@H](CNc1cc(-c2ccc(C(F)(F)F)c(F)c2)ncn1)c1ccc(F)cc1
(C) CC(C)(C#N)c1ccc(-c2cc(NC[C@H](O)c3ccccc3)ncn2)cc1 [Example 50, trifluoroacetic acid salt]
(D) Cc1noc2cc(-c3cc(NC[C@H](O)c4ccccc4)ncn3)ccc12
(E) O[C@@H](CNc1cc(-c2ccc3c(C(F)(F)F)noc3c2)ncn1)c1ccccc1
Put the items in sequence by pIC50, from largest down. Please respond by ranking the labels in the order requested.
E, B, D, A, C
(E: 8.40, B: 7.96, D: 7.72, A: 6.79, C: 6.01)

---

# system_name: FAAH (Homo sapiens, UniProt O00519)
# Sequence (O00519 1-579): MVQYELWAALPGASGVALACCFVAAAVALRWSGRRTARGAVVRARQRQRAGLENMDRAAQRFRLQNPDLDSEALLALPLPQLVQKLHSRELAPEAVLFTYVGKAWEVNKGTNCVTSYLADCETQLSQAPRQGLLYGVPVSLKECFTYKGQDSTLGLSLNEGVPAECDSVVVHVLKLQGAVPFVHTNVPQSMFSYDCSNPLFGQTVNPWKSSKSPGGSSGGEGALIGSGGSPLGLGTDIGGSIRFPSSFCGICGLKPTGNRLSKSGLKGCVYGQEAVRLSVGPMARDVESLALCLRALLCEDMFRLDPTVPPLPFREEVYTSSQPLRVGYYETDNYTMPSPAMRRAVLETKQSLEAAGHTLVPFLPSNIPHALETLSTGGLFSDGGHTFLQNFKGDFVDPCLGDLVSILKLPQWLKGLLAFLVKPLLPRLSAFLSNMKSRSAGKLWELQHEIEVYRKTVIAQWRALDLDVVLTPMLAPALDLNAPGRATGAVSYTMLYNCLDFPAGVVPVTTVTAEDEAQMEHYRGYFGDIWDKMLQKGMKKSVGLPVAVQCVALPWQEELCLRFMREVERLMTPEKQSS
# assay_text: Assay Method 1: FAAH assay, 3H-anandamide hydrolysis in homogenate of T84 cells or SK-N-MC cells transfected with human FAAH
Counter-ions that a name gives are not always drawn.
endpoint: IC50 (nM)

Below, each entry is followed by its recorded IC50 result.
molecule	endpoint	units_of_measure	assay_result
O[C@@H](CNc1cc(-c2cc(F)c(F)c(F)c2)ncn1)c1ccccc1 [Example 54, trifluoroacetic acid salt]	IC50	nM	277
OC(CNc1cc(-c2ccc(C(F)(F)F)c(Cl)c2)ncn1)c1ccc(-n2ccnc2)cc1 (stereo not shown)	IC50	nM	165
O[C@@H](CNc1cc(-c2ccc3ncccc3c2)ncn1)c1ccccc1	IC50	nM	81

(I) O[C@@H](CNc1cc(-c2ccc(Cl)c(Cl)c2)nc(C2CC2)n1)c1ccccc1
(II) O[C@@H](CNc1cc(-c2ccc(C(F)(F)F)c(Cl)c2)ncn1)c1ccc(Cl)c(F)c1
Between I and II , which one has the lower reported IC50 value? Provide the label of your selected option as the answer.
II
(II: 26 nM, I: 84 nM)

---

# system_name: Rat FAAH-1 (Rattus norvegicus, UniProt P97612)
# assay_text: Assay Method 2: rat FAAH-1 assay, 3H-anandamide hydrolysis in homogenate of SK-N-MC cells transfected with rat FAAH
Structures can show the parent of a compound that is named as a salt.
endpoint: IC50 (nM)

(1) O[C@@H](CNc1ncnc(-c2ccc(C(F)(F)F)cc2)n1)c1ccccc1 [Example 103, trifluoroacetic acid salt]
(2) CC(C)Oc1ccc(-c2cc(NC[C@H](O)c3ccccc3)ncn2)cc1Cl [Example 19]
(3) Cc1ccc(-c2cc(NC[C@H](O)c3ccccc3)ncn2)cc1Cl [Example 39, trifluoroacetic acid salt]
(4) N#Cc1ccc(-c2cc(NC[C@H](O)c3ccccc3)ncn2)cc1F [Example 88, trifluoroacetic acid salt]
Sort these compounds on IC50 so the largest reading comes first. Give the order by naming the labels one after another as requested.
1, 3, 4, 2
(1: 350 nM, 3: 60 nM, 4: 33 nM, 2: 12 nM)

(A) O[C@@H](CNc1cc(-c2ccc3c(C(F)(F)C(F)(F)F)noc3c2)ncn1)c1ccc(F)cc1 [Example 176, trifluoroacetic acid salt]
(B) CN(C)c1nc(NC[C@H](O)c2ccccc2)cc(-c2ccc(C(F)(F)F)c(Cl)c2)n1 [Example 101, trifluoroacetic acid salt]
Endpoint returns whichever of A and B has the numerically higher IC50. Write down the label attached to your selection.
B
(B: 80 nM, A: 10 nM)

---

# system_name: Rat FAAH-1 (Rattus norvegicus)
# assay_text: Assay Method 2: rat FAAH-1 assay, 3H-anandamide hydrolysis in homogenate of SK-N-MC cells transfected with rat FAAH
pIC50: −log10 of the molar value. Structures can show the parent of a compound that is named as a salt.
endpoint: pIC50

molecule	assay_result
OC(CNc1cc(-c2ccc(C(F)(F)F)c(Cl)c2)ncn1)c1cccc(OC(F)(F)F)c1 (centres unmarked) [Example 130, trifluoroacetic acid salt]	7.82
O[C@@H](CNc1cc(-c2ccc(OC(F)(F)F)c(F)c2)ncn1)c1ccc(F)cc1 [Example 174, trifluoroacetic acid salt]	8.30
COc1cccc(C(O)CNc2cc(-c3ccc(OC(F)(F)F)cc3)ncn2)c1 (centres unmarked)	7.66

(1) O[C@@H](CNc1cc(-c2ccc(C(F)(F)F)c(Cl)c2)ncn1)c1ccc(Cl)c(F)c1
(2) N#Cc1cccc(C(O)CNc2cc(-c3ccc(C(F)(F)F)c(Cl)c3)ncn2)c1 (centres unmarked)
(3) Cc1ccc2sc(-c3cc(NC[C@H](O)c4ccccc4)ncn3)cc2c1
(4) OC(CNc1cc(-c2ccc(C(F)(F)F)c(Cl)c2)ncn1)c1cc(-c2ccc(Cl)c(Cl)c2)no1 (centres unmarked)
List by increasing pIC50. Output the labels ranked as instructed.
4, 3, 2, 1

---

# system_name: Rat FAAH-1 (Rattus norvegicus, UniProt P97612)
# assay_text: Assay Method 2: rat FAAH-1 assay, 3H-anandamide hydrolysis in homogenate of SK-N-MC cells transfected with rat FAAH
pIC50: −log10 of the molar value.
endpoint: pIC50

(a) OC(CNc1cc(-c2ccc(C(F)(F)F)c(Cl)c2)ncn1)c1ccsc1 (stereo not shown)
(b) N#Cc1cc(C(O)CNc2cc(-c3ccc(C(F)(F)F)c(Cl)c3)ncn2)ccc1F (stereo not shown)
Could you please tell me which of these two has the higher pIC50: a or b ? Choose, then provide that item's label.
b
(b: 7.70, a: 7.38)

---

# system_name: UniProtKB O00519
# Sequence (O00519 1-579): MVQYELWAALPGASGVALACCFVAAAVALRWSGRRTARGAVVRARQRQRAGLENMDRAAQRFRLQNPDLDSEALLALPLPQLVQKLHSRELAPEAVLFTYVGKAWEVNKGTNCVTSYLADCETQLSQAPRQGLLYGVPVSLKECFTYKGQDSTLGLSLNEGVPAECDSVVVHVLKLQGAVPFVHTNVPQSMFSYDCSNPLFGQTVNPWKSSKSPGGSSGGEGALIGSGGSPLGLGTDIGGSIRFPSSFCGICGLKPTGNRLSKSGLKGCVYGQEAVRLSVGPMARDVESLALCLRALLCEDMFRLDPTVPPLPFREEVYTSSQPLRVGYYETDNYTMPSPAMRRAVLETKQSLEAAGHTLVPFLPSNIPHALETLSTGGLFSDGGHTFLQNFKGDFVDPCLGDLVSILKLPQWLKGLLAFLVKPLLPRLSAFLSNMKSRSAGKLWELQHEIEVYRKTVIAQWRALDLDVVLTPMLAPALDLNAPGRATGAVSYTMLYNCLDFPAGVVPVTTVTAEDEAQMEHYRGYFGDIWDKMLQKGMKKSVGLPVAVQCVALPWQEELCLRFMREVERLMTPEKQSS
# assay_text: Assay Method 1: FAAH assay, 3H-anandamide hydrolysis in homogenate of T84 cells or SK-N-MC cells transfected with human FAAH
Counter-ions that a name gives are not always drawn.
endpoint: IC50 (nM)

Reference set, count: 4
compound	endpoint	assay_result
CC(C)Sc1ccc(-c2cc(NC[C@H](O)c3ccccc3)ncn2)cc1 [Example 91, trifluoroacetic acid salt]	IC50	3
OC(CNc1cc(-c2ccc3c(c2)OCO3)ncn1)c1ccccc1 (centres unmarked) [Example 232]	IC50	150
O[C@@H](CNc1cc(-c2ccc3c(C(F)(F)F)csc3c2)ncn1)c1ccccc1 [Example 221]	IC50	19
O[C@@H](CNc1cc(-c2ccc3c(C(F)(F)C(F)(F)F)noc3c2)ncn1)c1ccccc1 [Example 188, trifluoroacetic acid salt]	IC50	24

(A) O=C(c1ccccc1)c1ccc(-c2cc(NC[C@H](O)c3ccccc3)ncn2)cc1 [Example 57, trifluoroacetic acid salt]
(B) Cc1noc2cc(-c3cc(NC[C@H](O)c4ccccc4)ncn3)ccc12 [Example 165]
(C) OC(CNc1cc(-c2ccc(OC(F)(F)F)cc2)ncn1)c1ccncc1 (centres unmarked) [Example 125]
(D) COc1cc(OC(F)(F)F)ccc1-c1cc(NC[C@H](O)c2ccccc2)ncn1 [Example 153, trifluoroacetic acid salt]
Put the entries in order of IC50, starting with the largest number. Please reply with the labels ordered as requested. Many thanks.
C, D, A, B
(C: 890 nM, D: 303 nM, A: 29 nM, B: 4 nM)
